Test system: ACHN
Test: NCI tumour cell line growth inhibition, 48 h
Calls of active or inactive are those of the source. No stated cut-off is given here; in the data, active = GI50 up to about 1.1 µM and inactive = higher.
outcome measure: GI50

COC(=O)C[C@H](COCc1ccccc1)NC(=O)C[C@H](COCc1ccccc1)NC(=O)OC(C)(C)C    38.6 µM (inactive)

Provide GI50 values for the following items, in order.
1. O=C(CC(=O)N1N=C(N2CCCCC2)CC1c1ccccc1)Nc1ccc(Cl)cc1 (stereo not given)
2. OC1(c2ccc(Cl)cc2)c2c(ccc3c2OCO3)C2=NCCN21 (stereo not given)
3. CN(C)C(=C1C(Br)=C(Br)C(Br)=C1Br)N(C)C
4. Cc1cc(Cc2c(C)c(C)c(Cc3cc(C)cc(C(C)(C)C)c3O)c(C)c2C)c(O)c(C(C)(C)C)c1
5. CC1C=C(OC(=O)c2ccccc2)C(=O)C(n2cc(F)c(=O)n(C(=O)c3ccccc3)c2=O)O1 (stereo not given)
6. CN(C)C(=O)OC1=CC2CCC(C1)N2C (stereo not given)

1. > 100 µM (inactive)
2. 38 µM (inactive)
3. > 100 µM (inactive)
4. > 100 µM (inactive)
5. 50.5 µM (inactive)
6. 82 µM (inactive)

Provide GI50 values for the following items, in order.
1. C1=CC=C2NCCOCC/N=C3/C=CC=CC=C3NCCOCC/N=C\2C=C1
2. Oc1cc(-c2c[nH]c3ccccc23)nc2cc3c(cc12)OCO3
3. CCOC(=O)NN1C(=O)C(=P(c2ccccc2)(c2ccccc2)c2ccccc2)C(C(=O)OC)=C1C

1. > 100 µM (inactive)
2. > 100 µM (inactive)
3. > 100 µM (inactive)

---

System: MDA-MB-435
Test: NCI tumour cell line growth inhibition, 48 h
Calls of active or inactive are those of the source. Rule as the data show it: active = GI50 up to about 1.1 µM and inactive = higher. Square brackets hold non-standard residues; d marks the D form. Peptide text beside a SMILES is read from it. * marks the point of attachment. ξ: configuration not given here. NMeN = CN[C@@H](CC(N)=O)C(=O)O; NMeV = CN[C@H](C(=O)O)C(C)C; ξNMeV = CNC(C(=O)O)C(C)C; Boc = CC(C)(C)OC(=O)*; ξNMeA = CNC(C)C(=O)O
Field 'call' accepts true = active, false = inactive

Example entries and their recorded answers appear below.
Cc1ccc(-c2cc(-c3cc(-c4ccc(C)cc4C)[nH]n3)[nH]n2)c(C)c1    false
c1ccc2c(c1)ncn2CCn1ccnc1    false
Cc1nn(-c2ccccc2)c(C)c1/C=N/NC(=O)c1sc(=S)n(-c2ccccc2)c1N    false
C=CCOC1=C(OC(C)=O)C(C2COC(C)(C)O2)OC1=O (stereo unspecified)    false
COc1cc(/C=N/N=C(\N)NO)cc(OC)c1OC    false

Please state the recorded outcome for this compound: Cc1cc(O)c(C(C)C)cc1C(=S)Nc1ccc(Cl)cc1
false

Another: CCC1CCN/C(=N/S(=O)(=O)c2cc(C)c(Cl)cc2S)N1 (stereo unspecified)
false

Another: CN(C)C(=O)OC1=CC2CCC(C1)N2C (stereo unspecified)
false

Another: COC(=O)C(C)N(C)C(=O)[C@H](CC(N)=O)N(C)C(=O)[C@@H]1CCCN1C(=O)[C@H](C(C)C)N(C)C(=O)C(C(C)C)N(C)C(=O)[C@@H](NC(=O)OC(C)(C)C)C(C)C (stereo partly specified) (Boc-V[ξNMeV][NMeV]P[NMeN][ξNMeA]-OMe)
false

Another: Nc1nc(-c2ccccc2)cc(-c2ccc(F)cc2)c1-c1ccc(Cl)cc1
false

Another: CC1CN=C(Nc2ccc(F)c(Cl)c2)S1 (stereo unspecified)
false

Another: COc1ccccc1N1CCN(CCCN2C(C(=O)c3ccccc3)=C(O)c3c(C)cc(C)nc3S2(=O)=O)CC1
false

Another: CCC(C#N)NCc1cccc(CNC(C#N)CC)c1 (stereo unspecified)
false

Another: COc1cc2c(c3c1c(=O)c1ccccc1n3C)C=CC1(CCCC1)O2
false

Another: CCCCCCCCCCCCCCN [TETRADECYLAMINE]
false

Another: CC1(C(=O)O)CCC2(C)CCC3(C)C(=CC(=O)C4C5(C)CCC(O)C(C)(C)C5CCC43C)C2C1 (stereo unspecified)
false

Another: C=CCOCn1ccc(NC(=O)c2ccccc2)nc1=O
false

---

System: 786-0
Test: NCI tumour cell line growth inhibition, 48 h
Calls of active or inactive are those of the source. No stated cut-off is given here; in the data, active = GI50 up to about 1.1 µM and inactive = higher.
outcome measure: GI50

CCOC(=O)c1c(-c2ccc(Br)cc2)ccn1C    > 10 µM (inactive)
O=c1oc2c/c(=C\c3ccc([N+](=O)[O-])cc3)c(=O)c3cccc1c3-2    > 100 µM (inactive)
O=[N+]([O-])c1cccc(-c2ncnc(-c3cccc([N+](=O)[O-])c3)n2)c1    27.4 µM (inactive)
OCC1OC(n2nc(-c3ccccc3)nc2-c2cnccn2)C(O)C(O)C1O (stereo not given)    > 100 µM (inactive)
CCC(C#N)NCc1cccc(CNC(C#N)CC)c1 (stereo not given)    > 100 µM (inactive)

Provide GI50 values for the following items, in order.
1. Cc1nc(N)nn1C1OCC(O)C(O)C1O (stereo not given)
2. CC(C)CNC(=O)Cn1c2c(c3ccccc31)CCCC2
3. COC(=O)C1=C(c2ccc(OC)c(OC)c2)OC(c2cc(OC)c(OC)c(OC)c2)C1 (stereo not given)
4. CC(=O)OC1COC(n2c(=S)n(-c3ccccc3)c(=O)c3cc(Br)ccc32)C(OC(C)=O)C1OC(C)=O (stereo not given)
5. NC(CCc1ncc(C(=O)O)s1)C(=O)O (stereo not given)

1: > 100 µM (inactive); 2: 20.7 µM (inactive); 3: 20 µM (inactive); 4: 34.1 µM (inactive); 5: > 100 µM (inactive)

---

Tested on: SNB-75
Assay: NCI tumour cell line growth inhibition, 48 h
Calls of active or inactive are those of the source. Rule as the data show it: active = GI50 up to about 1.1 µM and inactive = higher.
Field 'call' accepts yes (active), no (inactive)

COc1ccccc1C(=O)Nc1ccc(Cl)c(C(=O)OC(C)C)c1    no

Please state the recorded outcome for this compound: CC(C)=CCC[C@@H](C)C1=C(N)C(=O)C(C)=C(O)C1=O
no

Another: Clc1ccc(C2ON=C(c3ccccc3)N2C23CC4CC(CC(C4)C2)C3)cc1 (stereo not drawn)
no

Another: CN(C)C(=O)OC1=CC2CCC(C1)N2C (stereo not drawn)
no

Another: CSc1nc(-c2ccc(C)cc2)c(C#N)c(=O)[nH]1
no

Another: Oc1cc(-c2c[nH]c3ccccc23)nc2cc3c(cc12)OCO3
no

Another: CCC1(c2ccccc2)Sc2ccccc2-n2cccc2C1=O (stereo not drawn)
no

Another: O=C1C2Cc3ccccc3CN2C(=O)N1CN1CCN(CN2C(=O)C3Cc4ccccc4CN3C2=O)CC1 (stereo not drawn)
no

Another: O=C(CCN1CCOCC1)c1ccc(Oc2ccc(F)cc2)cc1
no

Another: CC1(C)CCc2cc3c(cc2O1)OCCC3=O
no

Another: COc1ccc(/C=N/C23CC4CC(CC(C4)C2)C3)cc1
no

Another: COc1cccc(-c2cc(=O)c3cc(N4CCCCC4)ccc3[nH]2)c1
yes

Another: Oc1cccc2nc3cc(CN4CCOCC4)c(CN4CCOCC4)cc3nc12
no

---

System: HOP-62
Experiment: NCI tumour cell line growth inhibition, 48 h
Active and inactive are the calls of the source. Cut-off read from the data, not from the text of the source: active = GI50 up to about 1.1 µM and inactive = higher.
Field 'call' accepts label 1 = active, label 0 = inactive

CCOC(=O)c1ncoc1[C@H]1COC(C)(C)O1    label 0
N#Cc1cccc(/C=N/C23CC4CC(CC(C4)C2)C3)c1    label 0

Please state the recorded outcome for this molecule: CN(C)C(=O)/C=C/c1c[nH]c(=O)[nH]c1=O
label 0

Another: CO/C=C(/C(=O)OC)c1ccccc1[C@H]1C[C@@H]1c1ccc(OC)cc1
label 0

Another: COC(=O)CCc1cc(OC)c(O)c(C(Cc2ccc(OC)c(OC)c2)C(=O)OC)c1 (stereo unspecified)
label 0

---

Record form. Attribute: GI50. Fill in for each entry.
System: MOLT-4
Assay: NCI tumour cell line growth inhibition, 48 h
Calls of active or inactive are those of the source. Rule as the data show it: active = GI50 up to about 1.1 µM and inactive = higher.

See these solved cases before continuing.
CC(=O)OC1COC(n2c(=S)n(-c3ccccc3)c(=O)c3cc(Br)ccc32)C(OC(C)=O)C1OC(C)=O (stereo not drawn)    > 100 µM (inactive)
CCC1(c2ccccc2)Sc2ccccc2-n2cccc2C1=O (stereo not drawn)    5.37 µM (inactive)

Provide GI50 values for the following items, in order.
1. CN(CCCNC(=O)c1nn(-c2ccccc2)c2c1ccc1ccccc12)CCCNC(=O)c1nn(-c2ccccc2)c2c1ccc1ccccc12
2. CC(C)C.C[N+](C)(C)C.OC(c1ccccc1)(C(F)(F)F)C(F)(F)F.OC(c1ccccc1)(C(F)(F)F)C(F)(F)F.[SiH3-]
3. Nc1ccc2nc3n(c2c1)C(c1c(F)cccc1F)SC3 (stereo not drawn)
4. COCOc1c(C(O[Si](C)(C)C(C)(C)C)c2cnc(Sc3ccccc3)n2C)ccc(OC)c1OC (stereo not drawn)
5. CC(C)=CCC[C@@H](C)C1=C(N)C(=O)C(C)=C(O)C1=O
6. COc1cc([C@@H]2c3cc4c(cc3[C@@H](NC(=O)c3cccc(N)c3)C3COC(=O)[C@@H]32)OCO4)cc(OC)c1O (stereo partly drawn)
7. COC(=O)c1cc(OS(=O)(=O)C(F)(F)F)c(=O)n2c1CCCC2
8. N#Cc1c(N)nc(Sc2ccccc2N)c(C#N)c1-c1ccccc1

1. 1.98 µM (inactive)
2. 1.73 µM (inactive)
3. 38.1 µM (inactive)
4. 2.54 µM (inactive)
5. 19.5 µM (inactive)
6. < 0.0147 µM (active)
7. > 100 µM (inactive)
8. 11.6 µM (inactive)
